The values you see were collected from ChEMBL document CHEMBL1135694.

assay: Turnover in rat liver microsomes; format: ADME, Microsome
measured.attribute: Metabolism

> print(dat)
                                   compound  measured.attribute         observed
1  CC1CCCCN1C(=O)Cc1ccc(/C=N/NC(=O)c2ccc(O)c(Cl)c2)c2ccccc12 (stereo not drawn)          Metabolism  267 pmol/min/mg
2  Cc1cc(C)c(C)c(Cn2ccc3c(/C=N/NC(=O)c4ccc(O)c(C#N)c4)cccc32)c1C          Metabolism   34 pmol/min/mg
3  O=C(N/N=C/c1ccc(CS(=O)(=O)Cc2ccc(OC(F)(F)F)cc2)c2ccccc12)c1ccc(O)c(Cl)c1          Metabolism   14 pmol/min/mg
4  O=C(N/N=C/c1cccc2c1ccn2Cc1ccc(Cl)c(Cl)c1)c1ccc(O)c(Cl)c1          Metabolism  190 pmol/min/mg
5  COc1ccc2oc(C(=O)Nc3ccc(/C=N/NC(=O)c4ccc(O)c(Cl)c4)c(OC)c3)cc2c1          Metabolism   31 pmol/min/mg
6  CN(C)CCN(Cc1ccccc1)C(=O)Cc1ccc(/C=N/NC(=O)c2ccc(O)c(C#N)c2)c2ccccc12          Metabolism  240 pmol/min/mg
7  CC(C)S(=O)(=O)Cc1ccc(/C=N/NC(=O)c2ccc(O)c(C#N)c2)c2ccccc12          Metabolism   31 pmol/min/mg
8  O=C(N/N=C/c1ccc(OCCNCc2ccc(OC(F)(F)F)cc2)c2ccccc12)c1ccc(O)c(Cl)c1          Metabolism  167 pmol/min/mg
